Source: ChEMBL document CHEMBL1201862

For each entry below, report its GI50 value.
- Tested on: A498
- assay: NCI tumour cell line growth inhibition, 48 h
Active and inactive are the calls of the source. No stated cut-off is given here; in the data, active = GI50 up to about 1.1 µM and inactive = higher. Positions of bridges follow the written chain, without caps; N, C: chain ends. Where a SMILES comes first, the peptide text is derived from it. Non-standard residues stand in square brackets, D forms with d. Residues, ends and D or L forms follow the SMILES beside them. [ ]: non-standard residue; d: D form. The star is where a group is joined. *: point of attachment. Octanoyl = CCCCCCCC(=O)*; PhAc = O=C(Cc1ccccc1)*; Aib = CC(C)(N)C(=O)O; tBu = CC(C)(C)*

Req: Suppose we examine the compound O=C(Cc1ccccc1)N[C@@H]1COC(=O)[C@@H]2CCCN2C(=O)[C@@H]2CCCN2C1=O (PhAc-[dS]-Pro-Pro; ester 1-C) ; what GI50 value has been reported?
Resp: > 100 µM (inactive)

Req: Suppose we examine the compound C=C(CN(CC(=C)C(=O)c1ccccc1)C(C)(C)C)C(=O)c1ccccc1 ; what GI50 value has been reported?
Resp: 18.3 µM (inactive)

Req: Suppose we examine the compound CCCC(=O)OC[n+]1ccc(-c2c(COC(=O)NC(C)C)c(COC(=O)NC(C)C)c3n2CCC3)cc1 ; what GI50 value has been reported?
Resp: 39.7 µM (inactive)

Req: Suppose we examine the compound CC(C)C(=O)NCC[C@@H](CNC(=O)OC(C)(C)C)NC(=O)OC(C)(C)C ; what GI50 value has been reported?
Resp: > 100 µM (inactive)

Req: Suppose we examine the compound O=C1CC(c2ccccc2)n2c(nc3ccccc32)N1 (stereo unspecified) ; what GI50 value has been reported?
Resp: 45.5 µM (inactive)

Req: Suppose we examine the compound CCN(CC)C(=S)SC [METHYLDIETHYL CARBAMODITHIOATE] ; what GI50 value has been reported?
Resp: > 100 µM (inactive)

Req: Suppose we examine the compound CCCCCCCC(=O)NC(C)(C)C(=O)NC(COC(C)(C)C)C(=O)NC(CC(C)C)C(=O)NC(C)(C)C(=O)NC(COC(C)(C)C)C(=O)NC(COC(C)(C)C)C(=O)NC(CC(C)C)C(=O)NC(C)(C)C(=O)NC(COC(C)(C)C)C(=O)NC(C(=O)NC(CC(C)C)C(=O)OC)C(C)CC (stereo unspecified) (Octanoyl-[Aib]S(tBu)L[Aib]S(tBu)S(tBu)L[Aib]S(tBu)IL-OMe; configuration not given here) ; what GI50 value has been reported?
Resp: 5.5 µM (inactive)

Req: Suppose we examine the compound COC(=O)C1CCC(=O)N1CN(C(C)=O)c1ccccc1Cl (stereo unspecified) ; what GI50 value has been reported?
Resp: > 100 µM (inactive)

Req: Suppose we examine the compound COc1ccc(CN(CCN(C)C)c2ccccn2)cc1.Cn1c(=O)c2[nH]c(Br)nc2n(C)c1=O ; what GI50 value has been reported?
Resp: > 100 µM (inactive)

Req: Suppose we examine the compound OCC12C3C4C1C1C2C3C41CO (stereo unspecified) ; what GI50 value has been reported?
Resp: > 100 µM (inactive)

Req: Suppose we examine the compound COC(=O)c1c(C(=O)OC)c(-c2ccccc2)n(-c2ccccc2)c(=O)c1-c1ccccc1 ; what GI50 value has been reported?
Resp: > 100 µM (inactive)
